# Lookup of reported Coupled exchange IC50 (5 min) keyed by entry
target: GDP-bound KRAS protein (aa 1-169), containing both G12C and C118A amino acid substitutions (Homo sapiens, UniProt P01116, C118A/G12C); test: Coupled nucleotide exchange assay (SOS-mediated, AlphaScreen); type: biochemical; details: 5 min compound pre-incubation
Sequence (P01116 1-169 isoform P01116-2 G12C/C118A): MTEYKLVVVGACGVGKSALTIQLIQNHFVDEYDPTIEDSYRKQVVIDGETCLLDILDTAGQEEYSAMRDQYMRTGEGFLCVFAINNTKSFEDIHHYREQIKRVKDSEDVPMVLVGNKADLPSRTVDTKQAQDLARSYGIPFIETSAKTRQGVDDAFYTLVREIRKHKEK

Solved cases (2 shown):
C=CC(=O)N1CCN(c2nc(=O)n(-c3c(C)cccc3C3CC3)c3nc(-c4c(O)cccc4F)c(Cl)cc23)[C@@H](C)C1 (single isomer, unassigned) [Example 55-15-2]	0.061 | nda μM
C=CC(=O)N1CCN(c2nc(=O)n(-c3nocc3C3CC3)c3nc(-c4c(O)cccc4F)c(Cl)cc23)[C@@H](C)C1	0.797 | nda μM

Shifting focus to the compound that follows.
*Q* Field request: Coupled exchange IC50 (5 min) | item: C=CC(=O)N1CCN(c2nc(=O)n(-c3c(C)cccc3C(C)C)c3nc(-c4nc(N)ccc4Cl)c(F)cc23)[C@@H](C)C1 (single isomer, unassigned) [Example 71-1-1]
*A* 0.49 | nda μM

###

Coupled exchange IC50 (5 min) overview
biological target: GDP-bound KRAS protein (aa 1-169), containing both G12C and C118A amino acid substitutions (Homo sapiens, UniProt P01116, C118A/G12C); assay: Coupled nucleotide exchange assay (SOS-mediated, AlphaScreen); assay type: biochemical; conditions: 5 min compound pre-incubation

Take a look at these entries with their results.
C=CC(=O)N1CCN(c2nc(=O)n(-c3c(C)ccnc3C(C)C)c3nc(-c4ccccc4F)c(Cl)cc23)[C@H](C(F)F)C1 (single isomer, unassigned) [Example 78-3-1]	1.19 | nda μM
C=CC(=O)N1CCN(c2nc(=O)n(-c3c(C)cc(CN(C)C)cc3C(C)C)c3nc(-c4ccccc4F)c(Cl)cc23)[C@@H](C)C1 (single isomer, unassigned) [Example 80-1-2]	0.556 | nda μM
C=CC(=O)N1CCN(c2nc(=O)n(-c3ccccc3C(C)C)c3nc(-c4ccc(F)cc4O)c(Cl)cc23)[C@@H](C)C1 [Example 54-77]	0.218 | nda μM
C=CC(=O)N1CCN(c2nc(=O)n(-c3c(C)ncnc3C3CC3)c3nc(-c4ccccc4F)c(Cl)cc23)[C@@H](C)C1 (single isomer, unassigned) [Example 60-30-1]	1.26 | nda μM
C=CC(=O)N1CCC(Oc2nc(=O)n(-c3c(C)ccnc3C(C)C)c3nc(-c4ccccc4F)c(Cl)cc23)C1 (racemic) [Example 79-2]	28.6 | nda μM

*Q* Which Coupled exchange IC50 (5 min) is listed for C=CC(=O)N1CCN(c2nc(=O)n(CC(C)(C)C)c3nc(-c4c(O)cccc4F)c(Cl)cc23)CC1 [Example 60-5] ?
*A* 0.589 µM

*Q* What would you report for C=CC(=O)N1C[C@@H](C)N(c2nc(=O)n(-c3c(C)ccnc3C(C)C)c3nc(-c4ccccc4F)c(Cl)cc23)[C@@H](C)C1 (single isomer, unassigned) [Example 78-7] ?
*A* 0.034 | nda μM

*Q* Repeat with C=CC(=O)N1CCN(c2nc(=O)n(CC(C)(C)C(F)(F)F)c3nc(-c4c(C)ccc5[nH]ncc45)c(Cl)cc23)[C@@H](C)C1 [Example 60-34]
*A* 0.478 | nda μM

*Q* Now give it for C=CC(=O)N1CCN(c2nc(=O)n(-c3scnc3C3CC3)c3nc(-c4ccccc4F)c(Cl)cc23)[C@@H](C)C1 [Example 56-4] too.
*A* 5.32 | nda μM

*Q* Same question for C=CC(=O)N1CCN(c2nc(=O)n(-c3ccccc3C(C)C)c3nc(-c4ccccc4F)c(F)cc23)[C@@H](C)C1 [Example 57-7] please.
*A* 0.991 | nda μM

*Q* Okay, and C=CC(=O)N1CCN(c2nc(=O)n(-c3c(F)cccc3F)c3nc(-c4c(O)cccc4F)c(Cl)cc23)[C@@H](C)C1 [Example 60-17] ?
*A* 5.74 | nda μM

*Q* Also C=CC(=O)N1CCN(c2nc(=O)n(C(C(C)C)C(C)C)c3nc(-c4ccccc4F)c(Cl)cc23)CC1 [Example 60-31] , if possible.
*A* 0.919 µM
